B1: Far upstream element-binding protein 1, residues 184 to 257; numbered along this chain, Q96AE4 (parent)
chain: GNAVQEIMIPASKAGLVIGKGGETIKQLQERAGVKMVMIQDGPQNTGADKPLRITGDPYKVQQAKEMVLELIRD

variants of: B1; assay: abundance fitness (aPCA) (normalised: wild type 0, dead -1); higher = more abundant; growth selection in yeast, the domain comes from the species named; details: Homo sapiens
So basically: abundance fitness at -0.1 or higher? That is yes (1). Lower than -0.1? That is no (0).

mutation_id	label_value
R73P	no (0)
Q44F	yes (1)
E70N	no (0)
G47N	yes (1)
V37T	yes (1)
K13T	no (0)
G22Q	yes (1)
I54L	yes (1)
E23S	yes (1)
D57A	yes (1)
K35M	no (0)
R31Y	no (0)
T55M	yes (1)
G56I	no (0)
G47M	yes (1)
S12W	no (0)
R53P	no (0)
I25R	no (0)
A64H	no (0)
L16H	no (0)
L69M	yes (1)
G19Y	no (0)
N45F	yes (1)
T24E	yes (1)
A14K	yes (1)
M36A	no (0)
Y59N	yes (1)
Y59S	yes (1)
G42F	yes (1)
D41F	no (0)
A11T	yes (1)
L71S	no (0)
G19Q	no (0)
V68L	no (0)
D49H	yes (1)
K13I	yes (1)
I25L	yes (1)
K60E	no (0)
A48T	yes (1)
V68K	no (0)
T55W	no (0)
Q62Y	yes (1)
V37N	yes (1)
L71G	no (0)
N45K	yes (1)
E70I	no (0)
E70R	yes (1)
I39Q	yes (1)
T55E	yes (1)
E70T	yes (1)
E23A	yes (1)
K65V	yes (1)
Q40F	yes (1)
Q40D	yes (1)
D41R	yes (1)
D49Y	yes (1)
V68G	no (0)
T55N	no (0)
K35Y	no (0)
G42Q	yes (1)
V61G	no (0)
G21M	yes (1)
K26R	yes (1)
D49S	yes (1)
K26P	no (0)
L52K	no (0)
Q40H	no (0)
R73W	yes (1)
S12Y	no (0)
T24D	no (0)
M38E	no (0)
G33T	no (0)
I25H	no (0)
A14R	yes (1)
R53F	no (0)
K50H	yes (1)
G56N	no (0)
K26N	yes (1)
I25G	no (0)
K60D	no (0)
P51R	yes (1)
D49C	yes (1)
L52M	yes (1)
K26V	no (0)
